subject.of.test: Gcr1 (UniProt P07261)
Sequence: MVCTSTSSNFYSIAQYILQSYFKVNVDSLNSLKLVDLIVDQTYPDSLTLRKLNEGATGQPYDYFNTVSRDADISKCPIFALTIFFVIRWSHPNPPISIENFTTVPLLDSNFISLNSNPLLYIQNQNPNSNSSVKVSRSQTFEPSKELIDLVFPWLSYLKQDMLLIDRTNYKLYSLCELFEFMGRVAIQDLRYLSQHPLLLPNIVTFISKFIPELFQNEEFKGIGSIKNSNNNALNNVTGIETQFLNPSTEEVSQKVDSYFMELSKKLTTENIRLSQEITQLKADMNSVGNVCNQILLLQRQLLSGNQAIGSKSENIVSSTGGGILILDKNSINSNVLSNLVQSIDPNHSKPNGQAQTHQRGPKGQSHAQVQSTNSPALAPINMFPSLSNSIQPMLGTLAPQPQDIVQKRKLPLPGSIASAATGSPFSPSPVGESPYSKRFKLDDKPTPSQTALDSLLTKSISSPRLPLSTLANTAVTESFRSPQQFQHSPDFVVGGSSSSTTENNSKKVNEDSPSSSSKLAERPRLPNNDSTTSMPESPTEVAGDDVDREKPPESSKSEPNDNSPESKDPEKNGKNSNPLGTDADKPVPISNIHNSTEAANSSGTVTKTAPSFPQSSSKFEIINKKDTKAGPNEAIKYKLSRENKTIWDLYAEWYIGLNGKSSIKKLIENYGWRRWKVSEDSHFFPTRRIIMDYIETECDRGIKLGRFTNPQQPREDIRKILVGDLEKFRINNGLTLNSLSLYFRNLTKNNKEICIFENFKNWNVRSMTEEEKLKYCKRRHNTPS
assay.remarks: PBM E-score (8-mer binding enrichment) (E-score (-0.5 to 0.5)); higher = stronger / more preferred TF binding
condition.description: protein concentration: 100 nM; construct: GST-full length
Over roughly 33,000 sequences, “E-score (-0.5 to 0.5)” has its median near -0.011; the highest 2% begin near 0.28. Only a selection was taken, and the highest values are over-represented in it overall.
endpoint.name: PBM E-score

biosequence	measured.result
ACGGCGCT	-0.00448
AATGCTCT	-0.112
TAGCCTGA	-0.232
CGGATGTC	0.0736
ACGGCGCA	-0.265
GAGTTCCA	0.123
CACGTGCC	-0.121
GCATCCGA	0.33
AGTAACTC	-0.155
GCCCAAAC	0.111
ACTCTAAC	0.00366
CCTAAATC	0.306
TGCATCCA	0.182
AGGGTCGG	-0.133
ATTGCTAC	0.11
AACATCCG	0.164
AACATCCA	0.193
CGCATCTC	0.0271
AAAGGACG	0.025
ACCCCGCC	0.0633
GACGGCGC	-0.0687
AGGTTCCA	0.327
GCTGACTA	-0.0111
CGGAGCCG	0.0209
GTATCGCA	-0.00444
GCGGCAAC	0.0813
ACGAAACG	-0.14
CCATTGGC	0.0633
AAGCGATC	-0.135
AGTCCCGA	-0.15
AGTGCCGA	-0.0356
GGCCCCCA	0.231
GGGGCACA	-0.0447
CCGGCAGA	0.0729
ACATTGCT	0.0699
GGGAGCCA	0.387
CAAATCGG	0.0561
TGGGCAAA	-0.213
CCTAAATA	0.129
TGTAGACA	-0.0678
CCGGCAGC	0.292
AAAATCCA	-0.012
CCATCCTA	0.0473
CTATCGCC	-0.00847
GTAGCTGA	-0.023
CCGGCAAG	-0.101
AGGCAGCA	0.0795
CACCCGGA	0.136
AAATCAAA	0.0655
AGTGCCCA	0.0254
AGGCAGCC	0.382
CCTTTCAG	-0.117
ACGTTCTC	-0.172
CCGATGAC	-0.0977
GTTTACCA	-0.022
GGTGCCGA	0.285
CGGGTATC	0.131
CTGGCAGA	0.0263
GTGGTAGA	-0.166
GCTCCGGA	0.121
GTTCTAAA	0.0776
CGGGGTGC	0.226
CCGGCGCG	-0.112
ACATCCTA	0.166
TATGCCCA	-0.14
CAACCAAC	-0.102
AGCATCCG	0.372
CCGCAAAA	0.0921
ACCATCCT	0.0586
CGTGCCCA	0.0649
AAGGCGAA	-0.0278
CTGGCAGC	0.386
CATACGCA	0.0448
AACAATCC	-0.0423
AATACTGT	0.0108
AAAACGCT	-0.0686
AAATGGCT	0.0656
AGTGCTCC	-0.116
CGGAGCCA	0.282
CTGTCTTA	0.0396
AGGAGCCA	0.214
ATGGCAGC	0.0656
AGGGCACC	0.13
GGGGTCCA	0.0846
GCGCCTGA	0.171
AAGAGGCG	0.0559
CGTTCTAG	0.0647
AGTTGGCG	0.0665
CTCATTCC	0.0687
CGCAGAGC	-0.291
ATGCTGGA	0.0516
